- measurement.target: T1, Abp1, P15891
- T1 sequence (P15891 535-592, looked up): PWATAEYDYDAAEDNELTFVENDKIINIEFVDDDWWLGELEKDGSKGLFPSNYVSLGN
- measurement.protocol: SPOT array
- setup.conditions: median of control spots 935
measurement.type: SPOT intensity
Respond using a number only.

binder=TKRKRPARLIFYDSK reported_result=157
binder=RRRRRPHRIERPLSN reported_result=133
binder=TPRLSLPRLPNKHHW reported_result=37
binder=LASNSPPVYPKRIRH reported_result=68
binder=NILKRRPLKLEAPSK reported_result=92
binder=RRSKSLPTTPGIRSG reported_result=229
binder=LLLLFVPDSPYDPAI reported_result=0
binder=APPLPPTAPPPPSLP reported_result=0

Query: Consider the binder `RVRKTHVPASKRPSG` . State its measured SPOT intensity.
Response: 64

Query: Consider the binder `RSLRKRPTSPSISGS` . State its measured SPOT intensity.
Response: 224

Query: Consider the binder `MSPLGAPPPPPHKDH` . State its measured SPOT intensity.
Response: 0
